Protocol details: cn = amount concentration of the nth substance listed, in mol/dm3
Condition label: 303 K; 101 kPa; Liquid; Capillary tube (Ostwald / Ubbelohde) method; c1 = 0.018
Measured endpoint: viscosity (mPa·s)
Provide only the numeric value, understood in mPa·s.

Some compounds with known viscosity results, for comparison:
1) CN(C)c1ccccc1 [N,N-dimethylaniline] + C[S+](C)[O-]
1.733
2) CNc1ccccc1 [N-methylaniline] + C[S+](C)[O-]
1.718
3) Cc1ccccc1N [2-methylaniline] + C[S+](C)[O-]
1.733
4) O=C1C(Cl)=C(Cl)C(=O)C(Cl)=C1Cl [2,3,5,6-tetrachloro-p-benzoquinone] + C[S+](C)[O-]
1.767

State, in one line, measured viscosity of Nc1ccccc1 [aniline] + C[S+](C)[O-]
1.79

----------
Entries and their mass density values follow.
Protocol details: cn = amount concentration of the nth substance listed, in mol/dm3
Condition label: 303 K; 101 kPa; Liquid; Pycnometric method; c1 = 0.008
± gives the expanded uncertainty stated by the source.
Answer format: number, then unit.

State, in one line, measured mass density of Cc1ccccc1N [2-methylaniline] + C[S+](C)[O-]
1089.6 ± 0.9 kg/m3

State, in one line, measured mass density of Nc1ccccc1 [aniline] + C[S+](C)[O-]
1090.2 ± 0.8 kg/m3

State, in one line, measured mass density of O=C1C(Cl)=C(Cl)C(=O)C(Cl)=C1Cl [2,3,5,6-tetrachloro-p-benzoquinone] + C[S+](C)[O-]
1091.9 ± 0.8 kg/m3

State, in one line, measured mass density of CN(C)c1ccccc1 [N,N-dimethylaniline] + C[S+](C)[O-]
1090.6 ± 0.8 kg/m3

State, in one line, measured mass density of CNc1ccccc1 [N-methylaniline] + C[S+](C)[O-]
1089.6 ± 0.8 kg/m3

----------
Protocol details: cn = amount concentration of the nth substance listed, in mol/dm3
Condition label: 303 K; 101 kPa; Liquid; Linear variable-path acoustic interferometer; c1 = 0.016
Numbers after ± are expanded uncertainties.
Entries and their speed of sound values follow.
Answer format: number, then unit.

1) O=C1C(Cl)=C(Cl)C(=O)C(Cl)=C1Cl [2,3,5,6-tetrachloro-p-benzoquinone] + C[S+](C)[O-]
1468.3 ± 3.2 m/s
2) Nc1ccccc1 [aniline] + C[S+](C)[O-]
1472.8 ± 3.2 m/s
3) CN(C)c1ccccc1 [N,N-dimethylaniline] + C[S+](C)[O-]
1471.6 ± 3.2 m/s

State, in one line, measured speed of sound of CNc1ccccc1 [N-methylaniline] + C[S+](C)[O-]
1471.9 ± 3.2 m/s

State, in one line, measured speed of sound of Cc1ccccc1N [2-methylaniline] + C[S+](C)[O-]
1471.9 ± 3.2 m/s

----------
Protocol details: cn = amount concentration of the nth substance listed, in mol/dm3
Condition label: 303 K; 101 kPa; Liquid; Capillary tube (Ostwald / Ubbelohde) method; c1 = 0.002
Entries and their viscosity values follow.
Provide only the numeric value, understood in mPa·s.

Some compounds with known viscosity results, for comparison:
1) CN(C)c1ccccc1 [N,N-dimethylaniline] + C[S+](C)[O-]
1.734
2) O=C1C(Cl)=C(Cl)C(=O)C(Cl)=C1Cl [2,3,5,6-tetrachloro-p-benzoquinone] + C[S+](C)[O-]
1.756
3) Nc1ccccc1 [aniline] + C[S+](C)[O-]
1.789
4) Cc1ccccc1N [2-methylaniline] + C[S+](C)[O-]
1.713

Next, consider the following compound.
State, in one line, measured viscosity of CNc1ccccc1 [N-methylaniline] + C[S+](C)[O-]
1.713
